# assayDetails: Mouse oral pharmacokinetics
# Type: in vivo, BALB/c mice
# cond: BALB/c, mouse, plasma; mice, single oral dose 2 mg/kg
reportedEndpoint: Tmax
# do not omit the unit; it follows the number

Reported Tmax of CN1C(=O)Cc2ccc(F)c(CCNCCC3CN(c4ccc5c(n4)NC(=O)CO5)C(=O)O3)c21 (single isomer, unassigned) : 1 h

----------
# targetUnderTest: E. coli topoisomerase IV (Escherichia coli, UniProt P0AFI2+P20083)
# Sequence (P0AFI2 whole entry): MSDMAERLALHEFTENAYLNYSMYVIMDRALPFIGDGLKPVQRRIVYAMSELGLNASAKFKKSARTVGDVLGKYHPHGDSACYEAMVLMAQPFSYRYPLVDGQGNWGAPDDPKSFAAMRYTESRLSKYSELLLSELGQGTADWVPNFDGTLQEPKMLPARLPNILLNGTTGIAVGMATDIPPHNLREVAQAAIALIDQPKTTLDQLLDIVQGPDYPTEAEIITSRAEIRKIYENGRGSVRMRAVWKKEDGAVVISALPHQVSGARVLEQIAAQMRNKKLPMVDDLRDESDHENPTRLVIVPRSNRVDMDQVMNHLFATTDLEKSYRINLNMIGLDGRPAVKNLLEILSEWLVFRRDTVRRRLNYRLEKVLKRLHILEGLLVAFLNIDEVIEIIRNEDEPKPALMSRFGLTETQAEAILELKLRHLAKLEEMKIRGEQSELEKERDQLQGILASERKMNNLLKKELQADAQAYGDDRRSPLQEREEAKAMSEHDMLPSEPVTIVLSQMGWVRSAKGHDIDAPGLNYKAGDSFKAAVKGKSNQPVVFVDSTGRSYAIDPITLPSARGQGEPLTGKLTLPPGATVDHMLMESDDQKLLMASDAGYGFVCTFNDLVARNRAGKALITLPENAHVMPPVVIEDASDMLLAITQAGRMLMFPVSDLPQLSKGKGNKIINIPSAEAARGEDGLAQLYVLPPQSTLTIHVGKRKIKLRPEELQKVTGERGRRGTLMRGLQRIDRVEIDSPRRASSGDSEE
# Sequence (P20083 whole entry): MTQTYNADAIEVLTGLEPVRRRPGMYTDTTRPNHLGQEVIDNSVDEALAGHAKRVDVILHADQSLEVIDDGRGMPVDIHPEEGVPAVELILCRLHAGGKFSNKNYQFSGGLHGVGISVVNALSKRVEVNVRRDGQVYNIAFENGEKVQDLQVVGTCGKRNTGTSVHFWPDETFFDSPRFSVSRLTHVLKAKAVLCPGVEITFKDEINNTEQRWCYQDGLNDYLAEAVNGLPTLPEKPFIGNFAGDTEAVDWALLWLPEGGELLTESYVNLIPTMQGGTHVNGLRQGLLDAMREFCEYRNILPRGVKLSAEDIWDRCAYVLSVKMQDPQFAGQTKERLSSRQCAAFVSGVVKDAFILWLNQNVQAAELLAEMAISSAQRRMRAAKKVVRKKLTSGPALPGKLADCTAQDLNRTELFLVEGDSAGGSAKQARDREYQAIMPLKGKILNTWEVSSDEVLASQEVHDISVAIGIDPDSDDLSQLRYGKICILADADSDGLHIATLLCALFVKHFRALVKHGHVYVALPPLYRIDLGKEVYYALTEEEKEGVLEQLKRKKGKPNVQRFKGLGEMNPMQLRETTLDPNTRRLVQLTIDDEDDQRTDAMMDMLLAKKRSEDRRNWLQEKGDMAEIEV
# assayDetails: biochemical
# cond: decatenation assay; read-out: E. coli Topo IV IC50
reportedEndpoint: pIC50
# pIC50 = -log10(concentration in molar units)

The cases that follow already have their pIC50 on record.
INSERT INTO assay_data (compound, targetundertest, reportedendpoint, assayvalue) VALUES
  ('CCN1C(=O)Cc2ccc(F)c(CNCCCC3CN(c4ccc5c(n4)NC(=O)CO5)C(=O)O3)c21 (centres unmarked) [Example 8]', 'E. coli topoisomerase IV (Escherichia coli, UniProt P0AFI2+P20083)', 'pIC50', 6.44),
  ('CN1C(=O)Cc2ccc(F)c(CNCCCC3CN(c4ccc5c(n4)NC(=O)CO5)C(=O)O3)c21 (racemic) [Example 6]', 'E. coli topoisomerase IV (Escherichia coli, UniProt P0AFI2+P20083)', 'pIC50', 6.34),
  ('CN1C(=O)Cc2ccc(F)c(CNCCCC3CN(c4ccc5c(c4)NC(=O)CO5)C(=O)O3)c21 (centres unmarked) [Example 12]', 'E. coli topoisomerase IV (Escherichia coli, UniProt P0AFI2+P20083)', 'pIC50', 6.22),
  ('CN1C(=O)Cc2ccc(F)c(CNCCCC3CN(c4ccc5c(n4)NC(=O)CO5)C(=O)O3)c21 (single isomer, unassigned) [Example 10]', 'E. coli topoisomerase IV (Escherichia coli, UniProt P0AFI2+P20083)', 'pIC50', 6.40);

Reported pIC50 of CN1C(=O)Cc2ccc(F)c(CCNCCC3CN(c4ccc5c(n4)NC(=O)CO5)C(=O)O3)c21 (single isomer, unassigned) [Example 14] : 7.44

----------
# assayDetails: Mouse intravenous pharmacokinetics
# Assay type: in vivo, BALB/c mice
# cond: BALB/c, mouse, plasma, iv; mice, 2 mg/kg
reportedEndpoint: AUC(0-t) (ng·h/mL)
Supply the numeric figure in ng·h/mL, leaving out any unit text.

Reported AUC(0-t) of CN1C(=O)Cc2ccc(F)c(CCNCCC3CN(c4ccc5c(n4)NC(=O)CO5)C(=O)O3)c21 (single isomer, unassigned) : 352

----------
# assayDetails: Mouse oral pharmacokinetics
# Assay type: in vivo, BALB/c mice
# cond: BALB/c, mouse, plasma; mice, single oral dose 100 mg/kg; read-out: Clast
reportedEndpoint: concentration at 8 h (µg/mL)
Supply the numeric figure in µg/mL, leaving out any unit text.

Reported concentration at 8 h of CN1C(=O)Cc2ccc(F)c(CCNCCC3CN(c4ccc5c(n4)NC(=O)CO5)C(=O)O3)c21 (single isomer, unassigned) : 0.072

----------
# assayDetails: Mouse oral pharmacokinetics
# Type: in vivo, BALB/c mice
# cond: BALB/c, mouse, plasma, po, 100 mg/kg, BALB/c mice, single oral doses of 2, 10, 50 and 100 mg/kg; read-out: Cmax, range over oral doses
reportedEndpoint: Clast

Reported Clast of CN1C(=O)Cc2ccc(F)c(CCNCCC3CN(c4ccc5c(n4)NC(=O)CO5)C(=O)O3)c21 (single isomer, unassigned) [Example 13] : 4 to 72 ng/mL
